B1: EHEE_rd2_0191 (parent)
chain: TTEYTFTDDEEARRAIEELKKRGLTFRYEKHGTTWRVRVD

variants of: B1; assay: folding stability dG (cDNA display proteolysis); higher = more stable; settings: PBS, room temperature
Threshold rule: folding stability dG greater than or equal to 9 kJ/mol is rule met; below that, rule not met.

QUERY: // inclusive: folding stability dG at least 9 kJ/mol? input: TLEYTFTDDEEARRAIEELKKRGLTFRYEKHGTTWRVRVD [T2L]
RESULT: rule met

QUERY: Cool, now TTEYTFTDDEEARRAIEELKKRGLTFRYEKHGTTWRVVVD [R38V]
RESULT: rule met

QUERY: How about this variant: TTEYTFTDDEEARRAIEVLKKRGLTFRYEKHGTTWRVRVD [E18V]
RESULT: rule not met

QUERY: Subsequent entry: TCEYTFTDDEEARRAIEELKKRGLTFRYEKHGTTWRVRVD [T2C]
RESULT: rule met

QUERY: One more variant: TTEYTFTDDEELRRAIEELKKRGLTFRYEKHGTTWRVRVD [A12L]
RESULT: rule met

QUERY: Then TTEYTFTDDEEARRAIEELKKRGLTFRYEKHGTTWRVAVD [R38A] ?
RESULT: rule not met

QUERY: Cool, now TTEYTFTDDEEARRAIEELKKRGLTFRYEKHGTTWRVRFD [V39F]
RESULT: rule not met

QUERY: Moving on to the next variant: TTEYTFTDDEEARRAIEELKIRGLTFRYEKHGTTWRVRVD [K21I]
RESULT: rule not met

QUERY: TTEYTLTDDEEARRAIEELKKRGLTFRYEKHGTTWRVRVD [F6L] ?
RESULT: rule not met

QUERY: Another variant: TTEYTFTDDEEARRAIEELKKRGLTFRYEKHGTTWRVRLD [V39L]
RESULT: rule not met

QUERY: Do the same for TTEYTFTDDEEARRAIEELKKRGLTFRYQKHGTTWRVRVD [E29Q] please
RESULT: rule not met

QUERY: Entry TTEYTFTDDEEHRRAIEELKKRGLTFRYEKHGTTWRVRVD [A12H] please
RESULT: rule not met

QUERY: Also check TTEYTFTDDEEAERAIEELKKRGLTFRYEKHGTTWRVRVD [R13E]
RESULT: rule not met

QUERY: Then this variant: TTEYTFTDDEEAFRAIEELKKRGLTFRYEKHGTTWRVRVD [R13F]
RESULT: rule met
